System: Wild type
Assay: S. aureus survival, RN4220 and DeltatarO strains – OD600, teichoic acid synthesis inhibitors, primary screen (AID 463173)
Settings: S. aureus RN4220 wild type/DeltatarO growth, OD600, 18 h, active compounds read low, screened at 18.75 µg/mL (by protocol)
The campaign covered roughly 52,000 compounds. About 1,700 (3.3%) were called active. The entries come from a sample that favours actives as a whole.
REPORTED_PROPERTY: survival (%)
The figure you give is taken to be in %; do not add the unit.

Examples with their reported survival follow.
{"columns": ["MOLECULE", "UNITS_TEXT", "survival"],
 "data": [
  ["COc1ccc(CNS(=O)(=O)c2ccc(C(=O)N(C)C)s2)cc1", "%", 87],
  ["CCCS(=O)(=O)c1ncc(Cl)c(C(=O)N(Cc2ccccc2)Cc2ccco2)n1", "%", 44],
  ["Cc1nc2ccn(Cc3cccs3)c(=O)c2cc1C(=O)NCc1ccccc1", "%", 73]
]}

Hello, I am looking for reported survival with Wild type for "CCOc1ccccc1NC(=O)CN1C(=O)C(=O)c2ccccc21" . Could you help? 115

Identify the measured survival of COc1ccc(CC(C)NS(=O)(=O)c2ccc3c(c2)CCN3S(C)(=O)=O)cc1OC (configuration not stated) for Wild type. 134

* * *

// reported survival per item
Test system: Wild type
Test: S. aureus survival, RN4220 and DeltatarO strains – OD600, teichoic acid synthesis inhibitors, primary screen (AID 463173)
Conditions: S. aureus RN4220 wild type/DeltatarO growth, OD600, 18 h, active compounds read low, screened at 18.75 µg/mL (by protocol)
The whole screen tested about 52,000 compounds, of which about 1,700 (3.3%) were called active. The entries come from a sample that favours actives as a whole.
Write the answer as a number in %, unit excluded.

Field: example entries. Status: answers known.
{"columns": ["COMPOUND", "TARGET_SYSTEM", "survival (%)"],
 "data": [
  ["Cc1ccsc1CN(Cc1ccco1)C(=O)c1ccc(Cl)cc1", "Wild type", 65],
  ["O=C(CC1(O)C(=O)N(Cc2ccccc2)c2ccc(Br)cc21)c1ccccc1 (stereo not given)", "Wild type", 30],
  ["CCc1ccc(C(=O)CC2(O)C(=O)N(CCc3ccccc3)c3ccc(Br)cc32)cc1 (stereo not given)", "Wild type", 36],
  ["CCNC(=O)c1c(NC(=O)c2cc(=O)c3ccc(C)c(C)c3o2)sc2c1CCCC2", "Wild type", 85]
]}

Param item = CCCCN1C(=O)C(O)(CC(=O)c2ccc(C(C)(C)C)cc2)c2ccccc21 (stereo not given) ; retrieve measured survival. 3

Item CCCCN1C(=O)C(O)(CC(=O)c2ccc(CC)cc2)c2cc(Br)ccc21 (stereo not given) has what recorded survival? 2

Name the recorded survival for "CCOc1ccc(-c2nonc2NC(=O)c2oc3c(C)c(C)ccc3c2C)cc1OCC" . 82

* * *

System: Wild type
Test: S. aureus survival, RN4220 and DeltatarO strains – OD600, teichoic acid synthesis inhibitors, primary screen (AID 463173)
Details: S. aureus RN4220 wild type/DeltatarO growth, OD600, 18 h, screened at 18.75 µg/mL (by protocol)
About 1,700 (3.3%) of roughly 52,000 compounds were called active. Rule as the data show it: active = survival mostly below about 52% (no sharp cut-off); inactive = mostly above about 56%. The list comes from a sample in which actives are over-represented; it also holds close analogues and randomly drawn compounds.
Select the correct class. Options are active, inactive and nothing else.

Answer briefly: the call reported for CCc1ccccc1NC(=O)c1noc2c1CC(C(C)(C)C)CC2 (stereo not given) in this assay. active

Any idea what this test logged for "O=C(Nc1nnc(S(=O)(=O)N2CCCc3ccccc32)s1)c1cccc(Cl)c1" ? active

* * *

Tested on: Wild type
Test: S. aureus survival, RN4220 and DeltatarO strains – OD600, teichoic acid synthesis inhibitors, primary screen (AID 463173)
Conditions: S. aureus RN4220 wild type/DeltatarO growth, OD600, 18 h, screened at 18.75 µg/mL (by protocol)
Out of some 52,000 compounds screened, about 1,700 (3.3%) were called active. No stated cut-off is given here; in the data, active means survival mostly below about 52% (no sharp cut-off); inactive means mostly above about 56%. The sample as a whole holds a higher share of actives than the screen did.
# output must be one of active, inactive

Solved cases (3 shown):
{"columns": ["COMPOUND", "CLASS"],
 "data": [
  ["Cc1ccccc1NC(=O)c1c(NC(=O)Cc2ccccc2)sc2c1CCC2", "inactive"],
  ["COc1ccc(C2=CC(c3cccc(C)c3)n3nnnc3N2)cc1 (stereo unspecified)", "inactive"],
  ["Cc1cccc(-c2nc(SCCCOc3ccccc3Cl)n3[nH]c(=O)cc3n2)c1", "inactive"]
]}

Write down the call the test reported for this compound. Item: COc1cccc(C2C=C(c3ccc(C)c(C)c3)Nc3nnnn32)c1OC (stereo unspecified) inactive

Tell me the assay call for Cc1cccc(C2C=C(c3ccc(C)c(C)c3)Nc3nnnn32)c1 (stereo unspecified) please. active

Per the records of this test, what outcome belongs to "Cc1ccccc1NC(=O)c1c(NC(=O)c2ccccc2)sc2c1CCC2" ? inactive

* * *

survival by entry:
System: Wild type
Assay: S. aureus survival, RN4220 and DeltatarO strains – OD600, teichoic acid synthesis inhibitors, primary screen (AID 463173)
Conditions: S. aureus RN4220 wild type/DeltatarO growth, OD600, 18 h, active compounds read low, screened at 18.75 µg/mL (by protocol)
The whole screen tested about 52,000 compounds, of which about 1,700 (3.3%) were called active. Many of the other results were omitted from the sample, so actives are more common in it than they were.
Expressed in %, but write only the number.

Recorded results for 3 compounds are shown here.
{"columns": ["COMPOUND", "EXPERIMENTAL_VALUE"],
 "data": [
  ["Cc1cc(NC(=O)c2ccccc2Cl)ccc1NC(=O)c1ccccc1", 85],
  ["O=C(Nc1cc2c(cc1C(=O)c1ccccc1)OCCO2)c1ccc(Br)cc1", 86],
  ["CCCCC1CCC(CCCC(C)CCC(=O)O)CC1 (stereo not drawn)", -5]
]}

Entry "Cc1ccc(C)c(NC(=O)Cn2c(=O)n(CCCS(=O)(=O)C3CCCCC3)c(=O)c3ccccc32)c1" : reported survival = ? 119

State the recorded survival for this entry: "N#Cc1ccccc1CN1C(=O)c2ccccc2Sc2ccc(C(=O)OCc3ccco3)cc21" 85

I am curious: what survival value has been reported for "CC1CCN(C(=O)Cn2c(SCC(=O)NC(C)(C)C)nc3ccccc32)CC1" ? 102

Look up survival for this compound: "O=C(c1ccccc1Cl)n1cc(Cl)cn1" 100

Data request, read-out survival, for O=C(Nc1cccc(NC(=O)C2CCCO2)c1)c1ccco1 (stereo not drawn) 102

Endpoint output: survival of "Cc1nc2nc(NC(=O)CC(C)C)[nH]n2c(=O)c1Cc1ccccc1" . Value? 110

* * *

Tested on: Wild type
Test: S. aureus survival, RN4220 and DeltatarO strains – OD600, teichoic acid synthesis inhibitors, primary screen (AID 463173)
Settings: S. aureus RN4220 wild type/DeltatarO growth, OD600, 18 h, screened at 18.75 µg/mL (by protocol)
The campaign covered roughly 52,000 compounds. About 1,700 (3.3%) were called active. No stated cut-off is given here; in the data, active means survival mostly below about 52% (no sharp cut-off); inactive means mostly above about 56%. What follows is part of a selection rich in actives, with near analogues and random picks from the rest.
Result category, one only: active, inactive

As a guide, the following entries are already answered.
{"columns": ["SMILES_INPUT", "TARGET_SYSTEM", "CLASS"],
 "data": [
  ["COc1ccc(-c2nc(CSCC(=O)NCc3ccccc3Cl)c(C)o2)cc1OC", "Wild type", "inactive"],
  ["CCOc1ccc(-c2nc(CSCC(=O)NCc3ccc(C)cc3)c(C)o2)cc1", "Wild type", "inactive"],
  ["CCc1ccc(-c2nc(CSCC(=O)NCc3ccc(C)cc3)c(C)o2)cc1", "Wild type", "active"],
  ["Cc1oc(-c2cccc(Cl)c2)nc1CS(=O)(=O)CC(=O)NCc1ccccc1Cl", "Wild type", "inactive"]
]}

Query compound follows.
Would you mind telling me which call this test gave "Cc1ccc(CCNC(=O)CSCc2nc(-c3ccc(C)cc3)oc2C)cc1" ? inactive

* * *

Test system: Wild type
Assay: S. aureus survival, RN4220 and DeltatarO strains – OD600, teichoic acid synthesis inhibitors, primary screen (AID 463173)
Conditions: S. aureus RN4220 wild type/DeltatarO growth, OD600, 18 h, screened at 18.75 µg/mL (by protocol)
Out of some 52,000 compounds screened, about 1,700 (3.3%) were called active. Cut-off read from the data, not from the text of the source: active = survival mostly below about 52% (no sharp cut-off); inactive = mostly above about 56%. This is one part of a sample in which actives are shown more often than they occur.
Could you please pick one outcome from this set? Y (active), N (inactive)

Completed entries (count: 5):
{"columns": ["COMPOUND", "CLASS"],
 "data": [
  ["COc1cccc(CNC(=O)c2ccc3c(c2)N(Cc2ccc(F)cc2Cl)C(=O)c2ccccc2S3)c1", "N"],
  ["CCCn1c(NCc2ccccc2F)nc2ccccc21", "N"],
  ["c1ccc2sc(N3CCN(Cc4nnnn4C4CCCC4)CC3)nc2c1", "N"],
  ["Cc1ccc(Cl)c2sc(N3CCN(C(=O)C4CC4)CC3)nc12", "N"],
  ["CCCCn1c(NCc2ccc(N(C)C)cc2)nc2ccccc21", "N"]
]}

Test call for this compound, please: "COc1ccccc1OCC(=O)N1CCC(c2nc3ccccc3o2)CC1" Y

Lab log entry: "CCCn1c(NCc2ccccc2C)nc2ccccc21" — outcome as called in the assay? N

Call for entry "COc1ccc(CNC(=O)Cc2c(C(=O)O)c(C)cn2C)cc1" : N

What is the recorded call for this compound in the test? CC(NC(=O)C(=O)Nc1c2c(nn1-c1ccc(F)cc1)CSC2)c1ccccc1 (stereo not drawn) Y

Check the results log: what was the call for "Cn1cc(-c2cc3n(n2)CCC(=O)N3CCCC(=O)Nc2ccccc2F)c2ccccc21" ? N

GET /call?item= CCOc1cc(C(=O)N2CC(=O)Nc3ccc(F)cc3C2c2ccccc2)cc(OCC)c1OCC (stereo not drawn) returns the recorded outcome of this test. N
